# test method notes: microbe, parasite or virus in culture
# condition summary: Mycobacterium tuberculosis, 72 h, read-out: pIC50 (converted)
measured quantity: IC50

CC(C)Oc1cccc(C(O)CNC(=O)NCc2cccs2)c1 (configuration not stated) = > 50.1 µM
O=C1CN(CC(=O)N2CCCCCCC2)CCN1 = > 501 µM
Cc1ccc(-c2noc(C(C)N)n2)cc1F (configuration not stated) = 368 µM
COC(=O)CNC(=O)c1cn(-c2ccccn2)c(=O)c2ccccc12 = > 50.1 µM
CCN1CCN(Cc2nc(-c3ccccc3)no2)CC1 = > 501 µM
OCc1cnc2c(F)cccc2c1 = > 501 µM
COCC(C)Nc1cccc(F)c1C#N (configuration not stated) = > 501 µM
